system: Saccharomyces cerevisiae; test: Inhibition of Saccharomyces cerevisiae alpha-glucosidase using p-nitro-phenyl-alpha-D-glucopyranoside as substrate at 200 uM preincubated with enzyme followed by substrate addition measured after 10 mins for every 2.5 to 5 mins relative to control
Threshold rule: inhibition greater than or equal to 9% is MET; below that, NOT MET.

Compound	Class Assignment
COC(=O)/C=C/c1ccc(O)c(O)c1	NOT MET
CC(=O)/C=C/C1=C(C)[C@@H](O)[C@@H](O[C@@H]2O[C@H](CO)[C@@H](O)[C@H](O)[C@H]2O)CC1(C)C	NOT MET
CC(=O)/C=C/C1=C(C)[C@@H](O)[C@@H](O)CC1(C)C	MET
O=C1C[C@@H](O[C@@H]2O[C@H](CO)[C@@H](O)[C@H](O)[C@H]2OC(=O)Cc2ccc(O)cc2)CO1	MET
COc1cc([C@H](OC)[C@@H](CO)Oc2c(OC)cc(-c3cc(=O)c4c(O)cc(O)cc4o3)cc2OC)ccc1O	MET
COc1cc(-c2cc(=O)c3c(O)cc(O)cc3o2)cc(OC)c1O	MET
COC(=O)C[C@@H](CO)O[C@@H]1O[C@H](CO)[C@@H](O)[C@H](O)[C@H]1OC(=O)C(=O)c1ccc(O)cc1	MET
COc1cc(-c2cc(=O)c3c(O)cc(O)cc3o2)cc(OC)c1O[C@@H](CO)[C@@H](O)c1ccc(O)cc1	NOT MET

[ask] Hi team, for O=C(CO)c1c[nH]c2ccccc12 , is the recorded inhibition at or above 9%?
[reply] NOT MET

[ask] Hi team, for O=C(Cc1ccc(O)cc1)O[C@H]1[C@@H](O)[C@H](OC(=O)Cc2ccc(O)cc2)[C@H](OC(=O)Cc2ccc(O)cc2)[C@@H](O)[C@@H]1O , is the recorded inhibition at or above 9%?
[reply] MET

[ask] Hi team, for Nc1ncnc2c1ncn2[C@@H]1O[C@H](CO)[C@@H](O)[C@H]1O , is the recorded inhibition at or above 9%?
[reply] MET

[ask] Hi team, for C[C@H]1O[C@H](O[C@H]2[C@H](O)[C@@H](O)[C@@H](O[C@H]3[C@H](O)[C@@H](O)C(O)O[C@@H]3CO)O[C@@H]2CO)[C@H](O)[C@@H](O)[C@@H]1N[C@H]1C=C(CO)[C@@H](O)[C@H](O)[C@H]1O (some centres not stated) , is the recorded inhibition at or above 9%?
[reply] MET

[ask] Hi team, for O=C1C[C@@H](O[C@@H]2O[C@H](CO)[C@@H](O)[C@H](OC(=O)Cc3ccccc3)[C@H]2OC(=O)Cc2ccc(O)cc2)CO1 , is the recorded inhibition at or above 9%?
[reply] MET

[ask] Hi team, for CC1(C)C[C@@H](O)C[C@@]2(C)OC(=O)C=C12 , is the recorded inhibition at or above 9%?
[reply] NOT MET

[ask] Hi team, for O=c1ccc2cc(O[C@@H]3O[C@H](CO)[C@@H](O)[C@H](O)[C@H]3O)c(O)cc2o1 , is the recorded inhibition at or above 9%?
[reply] NOT MET

---

assay: Inhibition of Saccharomyces cerevisiae alpha-glucosidase using p-nitro-phenyl-alpha-D-glucopyranoside as substrate preincubated with enzyme followed by substrate addition measured after 10 mins for every 2.5 to 5 mins
Measured Attribute: IC50
Kindly report the value followed by its unit.

Compound	Val
COC(=O)C[C@@H](CO)O[C@@H]1O[C@H](CO)[C@@H](O)[C@H](OC(=O)Cc2ccccc2)[C@H]1OC(=O)C(=O)c1ccc(O)cc1	165 µM

[ask] Given the compound COc1cc(-c2cc(=O)c3c(O)cc(O)cc3o2)cc(OC)c1O [TRICIN] , what is its reported IC50?
[reply] 162 µM

[ask] Given the compound O=C1C[C@@H](O[C@@H]2O[C@H](CO)[C@@H](O)[C@H](OC(=O)Cc3ccc(O)cc3)[C@H]2OC(=O)Cc2ccc(O)cc2)CO1 , what is its reported IC50?
[reply] 152 µM

[ask] Given the compound O=C1C[C@@H](O[C@@H]2O[C@H](CO)[C@@H](O)[C@H](O)[C@H]2OC(=O)Cc2ccc(O)cc2)CO1 , what is its reported IC50?
[reply] 181 µM

[ask] Given the compound COc1cc(-c2oc3cc(O)cc(O)c3c(=O)c2O)cc(O)c1OC , what is its reported IC50?
[reply] 154 µM
